FYI, the data here is from paper PMC2756588.

Recorded SPOT intensity by entry
# tgt: T1, Boi1, P38041
# T1 sequence (P38041 1-86, looked up): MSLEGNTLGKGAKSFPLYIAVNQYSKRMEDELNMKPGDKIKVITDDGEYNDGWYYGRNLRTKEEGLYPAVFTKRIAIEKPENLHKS
# measurementNotes: SPOT array
# cond: median of control spots 1162
reportedEndpoint: SPOT intensity

INSERT INTO results (binder, endpointvalue) VALUES
  ('LPPPPPPPPPPPLPQ', 1),
  ('NIKVLLNPKLGKPVK', 5),
  ('RMVRRRPLRVQFSAR', 14),
  ('MARRRLPDRPPNGIG', 0),
  ('VATSTSPKLPPRGKQ', 0),
  ('GSKSGPPPRPKKPST', 4),
  ('AHFQPQRTAPKPPIS', 0);
